# Lookup of reported OD450 nm keyed by entry
- target desc: Peptide 1593 (…) (Mycobacterium tuberculosis)
- measurement description: ELISA, NNK clone supernatant on coated peptide
The reply should contain only the number, in OD450.

Examples with their reported OD450 nm follow.
For the binder 65D3 chimeric Fab, NNK library H17 mutant S to W (H-S55W) (Fab, V domains shown) VH: QSLEESGGRLVTPGGSLTLTCTVSGFSLSTHDISWVRQAPGKGLEWIGVIARRGWTYYASWAKGRFTISKTSTTVDLKITSPTIEDTATYFCAREEFDFWGQGTLVTVSS VL: AVLTQTASPVSAAVGGTVTISCQSSQSVYNNKELSWFQQKPGQPPKLLISYASTLASGVPSRFKGSGSGTQFTLTISDLECDDAATYYCLGGYASTIDMWAFGGGTEVVVK , what OD450 nm is on record?
1.28

Item 65D3 chimeric Fab, NNK library L20 mutant S to H (VL S57H) (Fab, V domains shown) VH: QSLEESGGRLVTPGGSLTLTCTVSGFSLSTHDISWVRQAPGKGLEWIGVIARRGSTYYASWAKGRFTISKTSTTVDLKITSPTIEDTATYFCAREEFDFWGQGTLVTVSS VL: AVLTQTASPVSAAVGGTVTISCQSSQSVYNNKELSWFQQKPGQPPKLLISYASTLAHGVPSRFKGSGSGTQFTLTISDLECDDAATYYCLGGYASTIDMWAFGGGTEVVVK has what recorded OD450 nm?
0.596

New cases:
Could you tell me which OD450 nm is on file for 65D3 chimeric Fab, NNK library L3 mutant S to K (VL S25K) (Fab, V domains shown) VH: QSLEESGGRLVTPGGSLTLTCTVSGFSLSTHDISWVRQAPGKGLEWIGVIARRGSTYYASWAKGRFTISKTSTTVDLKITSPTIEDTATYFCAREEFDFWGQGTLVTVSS VL: AVLTQTASPVSAAVGGTVTISCQSKQSVYNNKELSWFQQKPGQPPKLLISYASTLASGVPSRFKGSGSGTQFTLTISDLECDDAATYYCLGGYASTIDMWAFGGGTEVVVK ?
0.982

Entry under review: 65D3 chimeric Fab, NNK library H26 mutant G to K (H-G64K) (Fab, V domains shown) VH: QSLEESGGRLVTPGGSLTLTCTVSGFSLSTHDISWVRQAPGKGLEWIGVIARRGSTYYASWAKKRFTISKTSTTVDLKITSPTIEDTATYFCAREEFDFWGQGTLVTVSS VL: AVLTQTASPVSAAVGGTVTISCQSSQSVYNNKELSWFQQKPGQPPKLLISYASTLASGVPSRFKGSGSGTQFTLTISDLECDDAATYYCLGGYASTIDMWAFGGGTEVVVK . Reported OD450 nm?
1.09

So what's the measured OD450 nm for this one? 65D3 chimeric Fab, NNK library L3 mutant S to A (VL S25A) (Fab, V domains shown) VH: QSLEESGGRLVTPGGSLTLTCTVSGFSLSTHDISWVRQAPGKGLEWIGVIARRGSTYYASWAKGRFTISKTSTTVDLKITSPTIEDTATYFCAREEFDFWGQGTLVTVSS VL: AVLTQTASPVSAAVGGTVTISCQSAQSVYNNKELSWFQQKPGQPPKLLISYASTLASGVPSRFKGSGSGTQFTLTISDLECDDAATYYCLGGYASTIDMWAFGGGTEVVVK
0.972

Which OD450 nm value belongs to 65D3 chimeric Fab, NNK library H25 mutant K to R (VH K63R) (Fab, V domains shown) VH: QSLEESGGRLVTPGGSLTLTCTVSGFSLSTHDISWVRQAPGKGLEWIGVIARRGSTYYASWARGRFTISKTSTTVDLKITSPTIEDTATYFCAREEFDFWGQGTLVTVSS VL: AVLTQTASPVSAAVGGTVTISCQSSQSVYNNKELSWFQQKPGQPPKLLISYASTLASGVPSRFKGSGSGTQFTLTISDLECDDAATYYCLGGYASTIDMWAFGGGTEVVVK ?
0.872

What value of measured OD450 nm is listed for 65D3 chimeric Fab, NNK library L3 mutant S to T (VL S25T) (Fab, V domains shown) VH: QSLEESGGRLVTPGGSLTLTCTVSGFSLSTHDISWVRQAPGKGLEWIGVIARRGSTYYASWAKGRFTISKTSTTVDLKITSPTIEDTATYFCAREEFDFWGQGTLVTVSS VL: AVLTQTASPVSAAVGGTVTISCQSTQSVYNNKELSWFQQKPGQPPKLLISYASTLASGVPSRFKGSGSGTQFTLTISDLECDDAATYYCLGGYASTIDMWAFGGGTEVVVK ?
0.956

Give its OD450 nm value. Item: 65D3 chimeric Fab, NNK library L18 mutant L to N (VL L55N) (Fab, V domains shown) VH: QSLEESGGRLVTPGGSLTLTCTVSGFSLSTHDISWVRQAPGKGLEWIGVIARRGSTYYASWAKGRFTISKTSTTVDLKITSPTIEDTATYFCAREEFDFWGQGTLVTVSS VL: AVLTQTASPVSAAVGGTVTISCQSSQSVYNNKELSWFQQKPGQPPKLLISYASTNASGVPSRFKGSGSGTQFTLTISDLECDDAATYYCLGGYASTIDMWAFGGGTEVVVK
0.937

May I ask what OD450 nm has been recorded for 65D3 chimeric Fab, NNK library L18 mutant L to S (VL L55S) (Fab, V domains shown) VH: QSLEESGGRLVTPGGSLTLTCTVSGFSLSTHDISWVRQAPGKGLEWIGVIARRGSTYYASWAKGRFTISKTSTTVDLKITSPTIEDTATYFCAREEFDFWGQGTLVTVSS VL: AVLTQTASPVSAAVGGTVTISCQSSQSVYNNKELSWFQQKPGQPPKLLISYASTSASGVPSRFKGSGSGTQFTLTISDLECDDAATYYCLGGYASTIDMWAFGGGTEVVVK ?
0.968

Quick one: OD450 nm for 65D3 chimeric Fab, NNK library L5 mutant S to K (VL S27K) (Fab, V domains shown) VH: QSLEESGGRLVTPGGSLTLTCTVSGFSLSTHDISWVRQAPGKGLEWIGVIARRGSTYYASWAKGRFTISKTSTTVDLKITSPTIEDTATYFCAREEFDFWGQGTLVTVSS VL: AVLTQTASPVSAAVGGTVTISCQSSQKVYNNKELSWFQQKPGQPPKLLISYASTLASGVPSRFKGSGSGTQFTLTISDLECDDAATYYCLGGYASTIDMWAFGGGTEVVVK ?
1.16
